Where these numbers come from: ChEMBL document CHEMBL1671689

- Tested on: Streptococcus pneumoniae
- Test protocol: Antimicrobial activity against Streptococcus pneumoniae serotype 11A by broth microdilution method
- Assay type: functional
Reported property: MIC50 (µg/mL)

smiles_notation=CCO/N=C(\C(=O)N[C@@H]1C(=O)N2C(C(=O)[O-])=C(Sc3nc(-c4cc[n+](C)cc4)cs3)CS[C@H]12)c1nsc(NP(=O)(O)O)n1 reported_property=MIC50 unit_name=µg/mL inequality_symbol== obs_value=0.06
smiles_notation=CC[C@H]1OC(=O)[C@H](C)[C@@H](O[C@H]2C[C@@](C)(OC)[C@@H](O)[C@H](C)O2)[C@H](C)[C@@H](O[C@@H]2O[C@H](C)C[C@H](N(C)C)[C@H]2O)[C@](C)(O)C[C@@H](C)C(=O)[C@H](C)[C@@H](O)[C@]1(C)O reported_property=MIC50 unit_name=µg/mL inequality_symbol=≤ obs_value=0.25
smiles_notation=CCC[C@@H]1C[C@@H](C(=O)N[C@@H]([C@H]2O[C@H](SC)[C@H](O)[C@@H](O)[C@H]2O)[C@H](C)Cl)N(C)C1 reported_property=MIC50 unit_name=µg/mL inequality_symbol=≤ obs_value=0.25
smiles_notation=CN[C@H](CC(C)C)C(=O)N[C@H]1C(=O)N[C@@H](CC(N)=O)C(=O)N[C@H]2C(=O)N[C@H]3C(=O)N[C@H](C(=O)N[C@H](C(=O)O)c4cc(O)cc(O)c4-c4cc3ccc4O)[C@H](O)c3ccc(c(Cl)c3)Oc3cc2cc(c3O[C@@H]2O[C@H](CO)[C@@H](O)[C@H](O)[C@H]2O[C@H]2C[C@](C)(N)[C@H](O)[C@H](C)O2)Oc2ccc(cc2Cl)[C@H]1O reported_property=MIC50 unit_name=µg/mL inequality_symbol=≤ obs_value=1
smiles_notation=CC(=O)NC[C@H]1CN(c2ccc(N3CCOCC3)c(F)c2)C(=O)O1 reported_property=MIC50 unit_name=µg/mL inequality_symbol== obs_value=1

----------
- Tested on: Streptococcus pneumoniae
- Test protocol: Antimicrobial activity against multiple drug resistant Streptococcus pneumoniae serotype 19F by broth microdilution method
- Format: functional
Reported property: MIC90

compound="CCO/N=C(\\C(=O)N[C@@H]1C(=O)N2C(C(=O)[O-])=C(Sc3nc(-c4cc[n+](C)cc4)cs3)CS[C@H]12)c1nsc(NP(=O)(O)O)n1 [CEFTAROLINE FOSAMIL]" reported_property=MIC90 obs_value="0.25 µg/mL"
compound="CC1(C)S[C@@H]2[C@H](NC(=O)COc3ccccc3)C(=O)N2[C@H]1C(=O)O [PENICILLIN V]" reported_property=MIC90 obs_value="4 µg/mL"
compound="CN[C@H](CC(C)C)C(=O)N[C@H]1C(=O)N[C@@H](CC(N)=O)C(=O)N[C@H]2C(=O)N[C@H]3C(=O)N[C@H](C(=O)N[C@H](C(=O)O)c4cc(O)cc(O)c4-c4cc3ccc4O)[C@H](O)c3ccc(c(Cl)c3)Oc3cc2cc(c3O[C@@H]2O[C@H](CO)[C@@H](O)[C@H](O)[C@H]2O[C@H]2C[C@](C)(N)[C@H](O)[C@H](C)O2)Oc2ccc(cc2Cl)[C@H]1O [VANCOMYCIN]" reported_property=MIC90 obs_value="≤ 1 µg/mL"
compound="CC1(C)S[C@@H]2[C@H](NC(=O)Cc3ccccc3)C(=O)N2[C@H]1C(=O)O [PENICILLIN G]" reported_property=MIC90 obs_value="4 µg/mL"
compound="CO/N=C(\\C(=O)N[C@@H]1C(=O)N2C(C(=O)O)=C(CSc3nc(=O)c(O)nn3C)CS[C@H]12)c1csc(N)n1 [CEFTRIAXONE]" reported_property=MIC90 obs_value="4 µg/mL"

----------
- Tested on: Streptococcus pneumoniae
- Test protocol: Antimicrobial activity against Streptococcus pneumoniae serotype 3 by broth microdilution method
- Assay type: functional
Reported property: MIC90

molecule="CC[C@H]1OC(=O)[C@H](C)[C@@H](O[C@H]2C[C@@](C)(OC)[C@@H](O)[C@H](C)O2)[C@H](C)[C@@H](O[C@@H]2O[C@H](C)C[C@H](N(C)C)[C@H]2O)[C@](C)(O)C[C@@H](C)C(=O)[C@H](C)[C@@H](O)[C@]1(C)O [ERYTHROMYCIN]" reported_property=MIC90 obs_value="≤ 0.25 mg/L"
molecule="COc1c(N2C[C@@H]3CCCN[C@@H]3C2)c(F)cc2c(=O)c(C(=O)O)cn(C3CC3)c12 [MOXIFLOXACIN]" reported_property=MIC90 obs_value="≤ 0.5 mg/L"
molecule="CO/N=C(\\C(=O)N[C@@H]1C(=O)N2C(C(=O)O)=C(COC(N)=O)CS[C@H]12)c1ccco1 [CEFUROXIME]" reported_property=MIC90 obs_value="≤ 1 mg/L"

----------
- Tested on: Streptococcus pneumoniae
- Test protocol: Antimicrobial activity against multiple drug resistant Streptococcus pneumoniae serotype 19F by broth microdilution method
- Assay type: functional
Reported property: MIC50 (µg/mL)

compound="CCC[C@@H]1C[C@@H](C(=O)N[C@@H]([C@H]2O[C@H](SC)[C@H](O)[C@@H](O)[C@H]2O)[C@H](C)Cl)N(C)C1 [CLINDAMYCIN]" unit_name=µg/mL inequality_symbol=> obs_value=2
compound="CN[C@H](CC(C)C)C(=O)N[C@H]1C(=O)N[C@@H](CC(N)=O)C(=O)N[C@H]2C(=O)N[C@H]3C(=O)N[C@H](C(=O)N[C@H](C(=O)O)c4cc(O)cc(O)c4-c4cc3ccc4O)[C@H](O)c3ccc(c(Cl)c3)Oc3cc2cc(c3O[C@@H]2O[C@H](CO)[C@@H](O)[C@H](O)[C@H]2O[C@H]2C[C@](C)(N)[C@H](O)[C@H](C)O2)Oc2ccc(cc2Cl)[C@H]1O [VANCOMYCIN]" unit_name=µg/mL inequality_symbol=≤ obs_value=1
compound="CC1(C)S[C@@H]2[C@H](NC(=O)Cc3ccccc3)C(=O)N2[C@H]1C(=O)O [PENICILLIN G]" unit_name=µg/mL inequality_symbol== obs_value=4
compound="C[C@H]1COc2c(N3CCN(C)CC3)c(F)cc3c(=O)c(C(=O)O)cn1c23.C[C@H]1COc2c(N3CCN(C)CC3)c(F)cc3c(=O)c(C(=O)O)cn1c23.O [LEVOFLOXACIN]" unit_name=µg/mL inequality_symbol== obs_value=1

----------
- Test system: Streptococcus pneumoniae
- Test protocol: Antimicrobial activity against multiple drug resistant Streptococcus pneumoniae serotype 19F assessed as percent susceptible isolates by broth microdilution method
- Format: functional
Each entry below carries its recorded Activity.
Reported property: Activity (%)

compound=CC1(C)S[C@@H]2[C@H](NC(=O)Cc3ccccc3)C(=O)N2[C@H]1C(=O)O unit_name=% obs_value=11.4
compound=CN[C@H](CC(C)C)C(=O)N[C@H]1C(=O)N[C@@H](CC(N)=O)C(=O)N[C@H]2C(=O)N[C@H]3C(=O)N[C@H](C(=O)N[C@H](C(=O)O)c4cc(O)cc(O)c4-c4cc3ccc4O)[C@H](O)c3ccc(c(Cl)c3)Oc3cc2cc(c3O[C@@H]2O[C@H](CO)[C@@H](O)[C@H](O)[C@H]2O[C@H]2C[C@](C)(N)[C@H](O)[C@H](C)O2)Oc2ccc(cc2Cl)[C@H]1O unit_name=% obs_value=100
compound=CO/N=C(\C(=O)N[C@@H]1C(=O)N2C(C(=O)O)=C(CSc3nc(=O)c(O)nn3C)CS[C@H]12)c1csc(N)n1 unit_name=% obs_value=43.9
compound=CO/N=C(\C(=O)N[C@@H]1C(=O)N2C(C(=O)O)=C(COC(N)=O)CS[C@H]12)c1ccco1 unit_name=% obs_value=0
compound=C[C@H]1COc2c(N3CCN(C)CC3)c(F)cc3c(=O)c(C(=O)O)cn1c23.C[C@H]1COc2c(N3CCN(C)CC3)c(F)cc3c(=O)c(C(=O)O)cn1c23.O unit_name=% obs_value=99.2
compound="C[C@@H](O)[C@H]1C(=O)N2C(C(=O)O)=C(SCCNC=N)C[C@H]12 [IMIPENEM ANHYDROUS]" unit_name=% obs_value=0.8
compound=COc1c(N2C[C@@H]3CCCN[C@@H]3C2)c(F)cc2c(=O)c(C(=O)O)cn(C3CC3)c12 unit_name=% obs_value=99.2
compound=CC[C@H]1OC(=O)[C@H](C)[C@@H](O[C@H]2C[C@@](C)(OC)[C@@H](O)[C@H](C)O2)[C@H](C)[C@@H](O[C@@H]2O[C@H](C)C[C@H](N(C)C)[C@H]2O)[C@](C)(O)C[C@@H](C)C(=O)[C@H](C)[C@@H](O)[C@]1(C)O unit_name=% obs_value=0
compound=CCC[C@@H]1C[C@@H](C(=O)N[C@@H]([C@H]2O[C@H](SC)[C@H](O)[C@@H](O)[C@H]2O)[C@H](C)Cl)N(C)C1 unit_name=% obs_value=0
compound=CC1(C)S[C@@H]2[C@H](NC(=O)COc3ccccc3)C(=O)N2[C@H]1C(=O)O unit_name=% obs_value=0
